Test system: U-937
Assay method text: Induction of apoptosis in human U937 cells at 50 uM after 30 hrs using annexin V/propidium iodide double-staining by FACS analysis
Format: functional
Measurement kind: Activity

CCCCCCCCCCCC=C(C(=O)OCC)C(=O)OCC | 60.2%
CCCCCCCCCCC=C(C(=O)OCC)C(=O)OCC | 25.4%
CCCCCCCCCCCCCCC=C(C(=O)OCC)C(=O)OCC | 94.4%

Now examine the next entry.
Request the reported Activity associated with CCCCCCCCCCCCCC=C(C(=O)OCC)C(=O)OCC
51.8%

----------
Assayed target: CREB-binding protein (Homo sapiens)
Assay method text: Inhibition of human recombinant KAT3A expressed in Escherichia coli BL21 using histone H4 peptide as substrate at 50 uM after 2 hrs relative to control
Calls of active or inactive are those of the source. The rule behind the calls is not given here.
Measurement kind: inhibition

CCCCCCCCCCCCCCC(C(=O)OCC)C(=O)OCC | Active
CCCCCCCCCCCCCC(C)=C(C(=O)OCC)C(=O)OCC | Active
CCCCCCCCCCCCCCCC(C(=O)OCC)C(=O)OCC | Active
CCCCCCCCCCCCCCC=C(C(=O)OCC)C(=O)OCC | 79%
C=CC/C=C\C/C=C\CCCCCCCc1cccc(O)c1C(=O)O | 62%

Consider the compound shown here: CCCCCCCCCCCC=C(C(=O)OCC)C(=O)OCC What is its recorded inhibition?
Active

----------
Assayed target: CREB-binding protein (Homo sapiens)
Assay method text: Inhibition of human recombinant KAT3A expressed in Escherichia coli BL21 using histone H4 peptide as substrate at 50 uM after 2 hrs relative to control
Activity calls are given as the source filed them. The rule behind the calls is not given here.
Response enum: class 1 (active), class 0 (inactive)

CCCCCCCCCCCCCCCCC(O)=C(C(=O)OCC)C(=O)OCC | class 1
CCCCCCCCCCCCCCCC(O)=C(C(=O)OCC)C(=O)OCC | class 1
CCCCCCCCCCCCCCC(C)=C(C(=O)OCC)C(=O)OCC | class 1
CCCCCCCCCCCCCCC=C1C(=O)OC(C)(C)OC1=O | class 1
CCCCCCCCCCCCCNC=C(C(=O)OCC)C(=O)OCC | class 1

Recorded test outcome, item CCCCCCCCCCCCC=C(C(=O)OCC)C(=O)OCC
class 0

Would you mind telling me which call this test gave CCCCCCCCCCCCCCCC1C(=O)OC(C)(C)OC1=O ?
class 1

In this assay, the call recorded for CCCCCCCCCCCCCC(C(=O)OCC)C(=O)OCC was what?
class 1

Please let me know the test result on file for CCCCCCCCCCC=C(C(=O)OCC)C(=O)OCC .
class 1

Could you check what this test reported for CCCCCCCCCCCCCC=C(C(=O)OCC)C(=O)OCC ?
class 1

Recorded call for CCCCCCCCCCCCCCC(Cl)=C(C(=O)OCC)C(=O)OCC ?
class 1

----------
Assayed target: Histone acetyltransferase p300 (Homo sapiens) (UniProt Q09472)
Sequence (Q09472 whole entry, the tested form may be a part): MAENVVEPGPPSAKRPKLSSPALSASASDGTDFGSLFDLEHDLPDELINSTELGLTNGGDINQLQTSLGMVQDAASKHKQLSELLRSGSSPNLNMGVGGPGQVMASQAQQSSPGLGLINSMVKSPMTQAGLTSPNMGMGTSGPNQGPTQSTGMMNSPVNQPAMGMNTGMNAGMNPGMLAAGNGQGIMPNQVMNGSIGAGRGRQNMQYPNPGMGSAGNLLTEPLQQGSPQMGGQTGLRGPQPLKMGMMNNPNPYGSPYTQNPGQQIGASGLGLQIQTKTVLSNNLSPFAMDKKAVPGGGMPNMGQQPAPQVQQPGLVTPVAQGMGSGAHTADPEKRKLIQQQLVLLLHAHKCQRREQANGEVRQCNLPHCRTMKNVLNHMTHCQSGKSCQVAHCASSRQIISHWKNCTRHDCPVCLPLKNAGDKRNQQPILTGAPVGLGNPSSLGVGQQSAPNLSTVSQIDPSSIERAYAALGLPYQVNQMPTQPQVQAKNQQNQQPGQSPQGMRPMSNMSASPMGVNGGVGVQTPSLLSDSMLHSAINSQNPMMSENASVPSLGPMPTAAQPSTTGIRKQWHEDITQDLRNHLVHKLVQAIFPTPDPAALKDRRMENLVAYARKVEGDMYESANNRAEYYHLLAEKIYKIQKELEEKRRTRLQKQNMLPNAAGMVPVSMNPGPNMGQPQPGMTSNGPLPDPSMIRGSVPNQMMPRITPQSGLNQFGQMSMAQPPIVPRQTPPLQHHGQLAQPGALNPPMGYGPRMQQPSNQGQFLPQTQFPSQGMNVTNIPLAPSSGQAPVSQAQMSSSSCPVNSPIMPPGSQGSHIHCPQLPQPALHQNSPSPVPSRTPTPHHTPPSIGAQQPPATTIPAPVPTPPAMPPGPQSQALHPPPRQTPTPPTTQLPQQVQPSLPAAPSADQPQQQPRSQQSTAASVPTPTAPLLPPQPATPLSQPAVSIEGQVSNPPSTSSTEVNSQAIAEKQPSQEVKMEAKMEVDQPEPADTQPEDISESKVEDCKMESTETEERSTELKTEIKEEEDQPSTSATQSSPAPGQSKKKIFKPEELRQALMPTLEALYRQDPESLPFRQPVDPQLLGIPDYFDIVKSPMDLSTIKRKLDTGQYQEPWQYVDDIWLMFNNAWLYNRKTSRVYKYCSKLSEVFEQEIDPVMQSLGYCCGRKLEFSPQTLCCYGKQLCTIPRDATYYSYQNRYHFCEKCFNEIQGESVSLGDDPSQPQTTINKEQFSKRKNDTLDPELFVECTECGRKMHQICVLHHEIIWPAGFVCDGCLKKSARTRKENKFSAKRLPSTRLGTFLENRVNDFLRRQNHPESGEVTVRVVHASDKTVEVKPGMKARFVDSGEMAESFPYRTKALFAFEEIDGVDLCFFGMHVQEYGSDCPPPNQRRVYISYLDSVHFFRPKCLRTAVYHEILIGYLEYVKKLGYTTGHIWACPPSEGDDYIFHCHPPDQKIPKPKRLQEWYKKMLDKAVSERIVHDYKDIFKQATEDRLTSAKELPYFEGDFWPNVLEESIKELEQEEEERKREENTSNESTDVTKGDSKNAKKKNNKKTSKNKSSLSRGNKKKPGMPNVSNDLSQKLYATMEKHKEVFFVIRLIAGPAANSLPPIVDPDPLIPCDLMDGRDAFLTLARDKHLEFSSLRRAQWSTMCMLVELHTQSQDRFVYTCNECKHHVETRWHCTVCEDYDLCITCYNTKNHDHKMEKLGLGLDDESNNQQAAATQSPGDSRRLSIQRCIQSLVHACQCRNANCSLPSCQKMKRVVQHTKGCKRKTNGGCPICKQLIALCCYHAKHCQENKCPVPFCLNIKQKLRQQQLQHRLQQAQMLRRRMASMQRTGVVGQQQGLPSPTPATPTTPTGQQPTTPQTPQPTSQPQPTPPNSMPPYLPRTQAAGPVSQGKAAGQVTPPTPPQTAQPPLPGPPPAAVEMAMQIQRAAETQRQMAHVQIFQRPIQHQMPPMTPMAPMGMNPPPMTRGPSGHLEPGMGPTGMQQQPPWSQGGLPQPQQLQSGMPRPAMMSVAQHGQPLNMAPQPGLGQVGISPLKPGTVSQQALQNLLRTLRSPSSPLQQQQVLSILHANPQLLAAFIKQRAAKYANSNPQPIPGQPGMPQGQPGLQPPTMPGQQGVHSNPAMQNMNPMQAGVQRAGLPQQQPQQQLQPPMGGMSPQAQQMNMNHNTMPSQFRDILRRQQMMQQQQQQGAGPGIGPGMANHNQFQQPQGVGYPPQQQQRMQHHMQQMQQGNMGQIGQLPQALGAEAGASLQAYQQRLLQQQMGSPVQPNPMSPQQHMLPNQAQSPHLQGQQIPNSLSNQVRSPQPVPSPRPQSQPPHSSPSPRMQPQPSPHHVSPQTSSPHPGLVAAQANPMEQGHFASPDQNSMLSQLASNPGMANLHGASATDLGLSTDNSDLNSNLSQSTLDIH
Assay method text: Binding affinity to His6-tagged immobilized human KAT3B catalytic domain expressed in Sf9 cells by surface plasmon resonance assay; call rule not given here
Just give me one of these, please: active, inactive

How was CCCCCCCCCCCCCCC=C(C(=O)OCC)C(=O)OCC classified in this test?
active

----------
Tested on: U-937
Assay method text: Inhibition of histone acetyltransferase in human U937 cells assessed as inhibition of acetylation of histone H3 at K14 at 50 uM after 24 hrs by Western blotting
Format: cell-based
The source made the active and inactive calls. The rule behind the calls is not given here.
Your answer must be one of the following: yes = active, no = inactive

CCCCCCCCCCC=C(C(=O)OCC)C(=O)OCC | yes
CCCCCCCCCCCCCCC=C(C(C)=O)C(C)=O | yes
CCCCCCCCCCCCC=C(C(=O)OCC)C(=O)OCC | no
CCCCCCCCCCCC=C(C(=O)OCC)C(=O)OCC | yes

How did this test come out for CCCCCCCCCCCCCC=C(C(=O)OCC)C(=O)OCC ?
yes

----------
Assayed target: Histone deacetylase (Homo sapiens) (UniProt Q13547+O15379+Q9UBN7+Q92769+Q9UQL6+Q8WUI4+Q9BY41+Q96DB2+P56524+Q9UKV0+Q969S8)
Assay method text: Inhibition of HDAC in human U937 cells at 50 uM after 15 mins by Western blotting
Type: cell-based
Run conditions: U-937
Activity calls are given as the source filed them. The calls are words filed in the database; no cut-off is given here.
Measurement kind: inhibition

CCCCCCCCCCCCCCCC(C(=O)OCC)C(=O)OCC | inactive
CCCCCCCCCCCCCCC(Cl)=C(C(=O)OCC)C(=O)OCC | inactive
CCCCCCCCCCCCCC=C(C(=O)OCC)C(=O)OCC | inactive
CCCCCCCCCCCCCCC(C)=C(C(=O)OCC)C(=O)OCC | inactive
CCCCCCCCCCCCCCC(C(=O)OCC)C(=O)OCC | inactive

Please give the measured inhibition for this molecule: CCCCCCCCCCCCCCC(O)=C(C(=O)OCC)C(=O)OCC
inactive

Recorded inhibition for CCCCCCCCCCCCCCC=C(C(=O)OCC)C(=O)OCC , please?
inactive

Which inhibition value is on record for CCCCCCCCCCCCCC(C(=O)OCC)C(=O)OCC ?
inactive

Using the record for CCCCCCCCCCCCCCCC1C(=O)OC(C)(C)OC1=O , report its inhibition.
inactive

Which inhibition value is on record for CCCCCCCCCCCCCC(C)=C(C(=O)OCC)C(=O)OCC ?
inactive

Name the recorded inhibition for CCCCCCCCCCCCCCC=C1C(=O)OC(C)(C)OC1=O .
inactive

What does the data say about its inhibition? Entry: CCCCCCCCCCCCCCCCC(O)=C(C(=O)OCC)C(=O)OCC
inactive

----------
System: U-937
Assay method text: Induction of apoptosis in human U937 cells at 25 uM after 30 hrs using annexin V/propidium iodide double-staining by FACS analysis
Assay type: functional, cell-based
The source made the active and inactive calls. The calls are words filed in the database; no cut-off is given here.
Measurement kind: Activity

Consider the reported Activity for these molecules:
CCCCCCCCCCCCCCC(N)=C(C(=O)OCC)C(=O)OCC | inactive
CCCCCCCCCCCCCCC(C(=O)OCC)C(=O)OCC | inactive
CCCCCCCCCCCCCCCC(C(=O)OCC)C(=O)OCC | inactive
CCCCCCCCCCCCCC(C)=C(C(=O)OCC)C(=O)OCC | inactive
CCCCCCCCCCCCCCC(C)=C(C(=O)OCC)C(=O)OCC | inactive

Query (molecule): CCCCCCCCCCCCCCC(Cl)=C(C(=O)OCC)C(=O)OCC ; field requested: Activity
inactive

Which Activity value belongs to CCCCCCCCCCCCCCC=C1C(=O)OC(C)(C)OC1=O ?
inactive

Look up Activity for this molecule: CCCCCCCCCCCCCCC(O)=C(C(=O)OCC)C(=O)OCC
inactive

----------
This listing pairs compounds with measured IC50.
System: U-937
Assay method text: Induction of apoptosis in human U937 cells after 30 hrs using annexin V/propidium iodide double-staining by FACS analysis
Format: functional, cell-based
Run conditions: U-937, 30 h

CCCCCCCCCCC=C(C(=O)OCC)C(=O)OCC | 156 µM

Item under review: CCCCCCCCCCCCCCC=C(C(=O)OCC)C(=O)OCC . Reported IC50?
44.9 µM

Give its IC50 value. Item: CCCCCCCCCCCCCC=C(C(=O)OCC)C(=O)OCC
42.9 µM

For the compound CCCCCCCCCCCC=C(C(=O)OCC)C(=O)OCC , what IC50 is on record?
84.2 µM

----------
Tested on: U-937
Assay method text: Induction of apoptosis in human U937 cells at 25 uM after 30 hrs using annexin V/propidium iodide double-staining by FACS analysis
Format: functional, cell-based
The source made the active and inactive calls. The calls are words filed in the database; no cut-off is given here.
Measurement kind: Activity

Answered cases to consult:
CCCCCCCCCCCCCNC=C(C(=O)OCC)C(=O)OCC | inactive
CCCCCCCCCCCCCCCC(O)=C(C(=O)OCC)C(=O)OCC | inactive
CCCCCCCCCCCCCCCC1C(=O)OC(C)(C)OC1=O | inactive
CCCCCCCCCCCCCCCCC(O)=C(C(=O)OCC)C(=O)OCC | inactive
CCCCCCCCCCCCCC(C(=O)OCC)C(=O)OCC | inactive

Next up:
Can you look up Activity on U-937 for CCCCCCCCCCCCC=C(C(=O)OCC)C(=O)OCC ?
inactive

----------
Tested on: U-937
Assay method text: Inhibition of histone acetyltransferase in human U937 cells assessed as inhibition of acetylation of histone H3 at K56 at 50 uM after 24 hrs by Western blotting
Assay type: cell-based
The source made the active and inactive calls. The calls are words filed in the database; no cut-off is given here.
Choose one outcome from this list and give only that: true for active, false for inactive

Record lookup: outcome of this test for CCCCCCCCCCCCC=C(C(=O)OCC)C(=O)OCC ?
false

Identify the outcome logged in this assay for the compound shown: CCCCCCCCCCCCCCC=C(C(C)=O)C(C)=O
false

Please indicate how the test categorized CCCCCCCCCCCCCC=C(C(=O)OCC)C(=O)OCC .
true

Short answer needed: outcome of this test for CCCCCCCCCCCC=C(C(=O)OCC)C(=O)OCC ?
true

Given CCCCCCCCCCC=C(C(=O)OCC)C(=O)OCC , state the outcome it received in this test.
true

meta.source: ChEMBL document CHEMBL1795294
